- Test: Permeability of the compound by PAMPA method at pH 7.4
- Type: ADME
- Condition Label: read-out: permeability
Item-by-item account of Papp
Output spec: scalar in ×10⁻⁶ cm/s, unitless text.

input: Bench note: what Papp did O=c1c2c([nH]c3ccc(-c4cccc(Oc5ccc(F)cc5)c4)cc13)CCSC2 show?
output: 2

input: Field request: Papp | item: O=c1c2c([nH]c3ccc(-c4ccc(F)cc4F)cc13)CCSC2
output: 10

input: I have this compound here, Cc1cc(C)c2c(=O)c3c([nH]c2c1)CCCC3 , and I need its recorded Papp.
output: 218

input: Need Papp of COc1ccc2c(=O)c3c([nH]c2c1OC)CCCC3 , thanks.
output: 19

input: // lookup Papp for Cc1cc(C)c2[nH]c3c(c(=O)c2c1)CCCC3
output: 58

input: // lookup Papp for COc1cccc2[nH]c3c(c(=O)c12)CCCC3
output: 17

input: // lookup Papp for O=c1c2c([nH]c3c(F)c(F)ccc13)CCCC2
output: 38

input: For the compound CC(C)(C)c1cccc2c(=O)c3c([nH]c12)CCCC3 , what Papp is on record?
output: 553

input: Would you mind telling me what Papp value was observed for Cc1cc2[nH]c3c(c(=O)c2cc1C)CCCC3 ?
output: 46

input: Could you tell me which Papp is on file for COc1ccc2c(=O)c3c([nH]c2c1)CCCCCC3 ?
output: 73

Values were extracted from ChEMBL document CHEMBL1799910.
